Catalogue of pIC50 values
target: Recombinant human farnesyl transferase (FTase) (Homo sapiens, UniProt P49356); experiment: FTase fluorescence assay (farnesylation of dansyl-GCVLS peptide); conditions: recombinant human FTase 2.5 nM, Dansyl-GCVLS 85 nM, FPP 30 nM, 30° C., 50 minutes
pIC50: −log10 of the molar value.

>  <molecule>
Cn1cncc1[C@]1(N)c2ccc(Cl)c(c2)COc2cccc(c2)-c2cc(C#N)nc3ccc1cc23 (racemic) [(R)-48]

>  <pIC50>
7.00 to 8.00

$$$$
>  <molecule>
Cn1cncc1C1(O)c2cccc(c2)COc2cccc(c2)-c2cc(=O)n(C)c3ccc1cc23 (stereo not drawn) [Compound 42]

>  <pIC50>
≥ 8.00

$$$$
>  <molecule>
Cn1cncc1[C@@]1(O)c2ccc(Cl)c(c2)OCc2cccc(c2)-c2cc(=O)n(C)c3ccc1cc23 [(S)-14]

>  <pIC50>
≥ 8.00

$$$$
>  <molecule>
[2H]C([2H])([2H])n1c(=O)cc2c3cc(ccc31)[C@](N)(c1nncn1C)c1ccc(Cl)c(c1)OCCc1cccc-2c1 (racemic) [(R)-34]

>  <pIC50>
< 7.00

$$$$
>  <molecule>
Cn1cncc1[C@@]1(N)c2ccc(Cl)c(c2)COc2cccc(c2)-c2cc(=O)n(C)c3ccc1cc23 [(S)-46]

>  <pIC50>
≥ 8.00

$$$$

Input: Could you please provide reported pIC50 for [2H]C([2H])([2H])n1c(=O)cc2c3cc(ccc31)[C@](N)(c1cncn1C)c1ccc(C#N)c(c1)CCc1cccc-2c1 (racemic) [(S)-8] ? Thanks!
Output: < 7.00

Input: Could you please provide reported pIC50 for Cn1cnnc1[C@@]1(N)c2ccc(C#N)c(c2)OCCc2cccc(c2)-c2cc(=O)n(C)c3ccc1cc23 [(S)-39] ? Thanks!
Output: ≥ 8.00

Input: Could you please provide reported pIC50 for COc1cc2c3cc(ccc3n1)C(O)(c1cncn1C)c1ccc(Cl)c(c1)COc1cccc-2c1 (stereo not drawn) [Compound 43] ? Thanks!
Output: 7.00 to 8.00

Recorded values, source patent US12018011B2.
